# log10 IC50 annotations
TESTED TARGET: Capsid scaffolding protein (Human cytomegalovirus (strain AD169) (HHV-5) (Human herpesvirus 5))
Sequence (P16753 1-256 limits assumed): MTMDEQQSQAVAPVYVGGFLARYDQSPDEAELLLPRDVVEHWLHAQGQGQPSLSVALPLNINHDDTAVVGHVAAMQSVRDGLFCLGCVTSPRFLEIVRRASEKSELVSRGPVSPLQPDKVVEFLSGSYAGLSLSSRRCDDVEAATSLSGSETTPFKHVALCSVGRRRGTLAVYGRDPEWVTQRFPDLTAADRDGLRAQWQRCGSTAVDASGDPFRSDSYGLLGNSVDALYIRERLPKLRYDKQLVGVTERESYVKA
TEST METHOD NOTES: Inhibitory activity against cytomegalovirus protease (CMV)
OBSERVED PROPERTY: log10 IC50 (log10 of the value in nM)

SMILES STR	OBSERVED PROPERTY	VALUE REPORTED
Cc1csc2nc([C@H](C)NC(=O)CCC(=O)c3cccs3)oc(=O)c12	log10 IC50	4.28
Cc1csc2nc([C@H](C)NC(=O)/C=C/C(=O)c3ccc(Cl)cc3)oc(=O)c12	log10 IC50	1.78
Cc1csc2nc([C@H](C)NC(=O)/C=C/C(=O)c3ccccc3[N+](=O)[O-])oc(=O)c12	log10 IC50	1.15
Cc1csc2nc([C@H](C)NC(=O)/C=C/C(=O)c3ccccc3)oc(=O)c12	log10 IC50	1.48
Cc1csc2nc([C@H](C)NC(=O)/C=C/C(=O)c3cccc([N+](=O)[O-])c3)oc(=O)c12	log10 IC50	1.49
Cc1csc2nc([C@H](C)NC(=O)/C=C/C(=O)Nc3ccccc3)oc(=O)c12	log10 IC50	3.36
COc1cccc(C(=O)/C=C/C(=O)N[C@@H](C)c2nc3scc(C)c3c(=O)o2)c1	log10 IC50	1.46
Cc1csc2nc([C@H](C)NC(=O)CCC(=O)c3ccccc3)oc(=O)c12	log10 IC50	4.32
Cc1csc2nc([C@H](C)NC(=O)/C=C/C(=O)c3cccc(C#N)c3)oc(=O)c12	log10 IC50	1.61
